Test system: giant foxtail (Setaria faberi)
Protocol Details: Test G Post-Emergence Protocol
Assay type: in vivo
Recorded Conditions: Setaria faberi, post-emergence, 312 h, 15.625 g ai/ha, evaluated after 13 days (100=total damage to plant; 0=no damage to plant), read-out: Foxtail, Giant damage rating
Items are presented alongside their recorded pest or weed control at 15.625 g/ha.
Give a bare numeral; the unit % is implied.

Below, 3 compounds whose answers are already recorded.
{"columns": ["Compound", "Tested System", "Unit Abbrev", "pest or weed control at 15.625 g/ha"],
 "data": [
  ["CN1C[C@@H](c2ccc(C(F)(F)F)cc2)[C@H](C(=O)Nc2ccncc2Cl)C1=O (racemic)", "giant foxtail (Setaria faberi)", "%", 0],
  ["COc1ccc(CNC(=O)[C@H]2C(=O)N(C)C[C@@H]2c2ccc(C(F)(F)F)cc2)c(OC)c1 (racemic)", "giant foxtail (Setaria faberi)", "%", 0],
  ["Cc1conc1NC(=O)[C@@H]1C(=O)N(C)C[C@H]1c1ccc(C(F)(F)F)cc1 (racemic)", "giant foxtail (Setaria faberi)", "%", 0]
]}

Now turn to the next compound.
// returns reported pest or weed control at 15.625 g/ha for input C=C(C)c1ccccc1NC(=O)[C@H]1C(=O)N(C)C[C@@H]1c1ccc(C(F)(F)F)cc1 (racemic)
0
